system: MDA-MB-231 cells; assay: Cell proliferation assay (CellTiter-Glo), MDA-MB-231; type: cell-based; conditions: Homo sapiens, MDA-MB-231, 72 h, 72 h treatment, Celltiter-Glo luminescence
Would you mind telling me the reported IC50 of each entry?
// note: answer is a bare numeric in µM

Query: Name the recorded IC50 of the compound listed here: C[C@@H]1CN(CC(=O)N2CC(C)(C)c3c2cc(Cc2ccc(F)cc2)c2nn(CC(C)(C)O)c(=O)n32)[C@@H](CN2CCN(C3COC3)C[C@H]2C)CN1 [Compound 267]
Response: 0.034

Query: Name the recorded IC50 of the compound listed here: C[C@@H]1CN(CC(=O)N2CC3(CCOCC3)c3c2cc(Cc2ccc(F)cc2)c2ncnn32)[C@@H](CN2CCOC[C@H]2C)CN1 [Compound 180]
Response: 0.615

Query: Name the recorded IC50 of the compound listed here: C[C@@H]1CN(CC(=O)N2CC(C)(C)c3c2cc(Cc2ccc(F)cc2)c2nc(N4CC(C)(O)C4)nn32)[C@@H](CN2CCOC[C@H]2C)CN1 [Compound 170]
Response: 0.099

Query: Name the recorded IC50 of the compound listed here: CC(O)c1nc2c(Cc3ccc(F)cc3)cc3c(n2n1)C(C)(C)CN3C(=O)CN1C[C@@H](C)NC[C@@H]1CN1CCOC[C@H]1C (stereo partly shown) [Compound 154]
Response: 0.1

This collection of values is drawn from patent US20250179073A1.
